assay: amyloid nucleation score (Sup35N fusion, yeast selection) (log enrichment); library NNK1; higher = more nucleation; inactive = no reads after selection;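 also: zero at mode of non-aggregating sequences after 7 days selection at 30°C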
readout: amyloid nucleation score

1) DWDSALPSLNFDSETPFYKS | -0.649
2) RCCYCLGLFVWATCVGGVRT | 3.1
3) YMTQIMHKARRFNAWPAVMM | 0.087
4) VRGYGGVC | -0.296
5) VVMLSVSPLTIHRGSFRDCS | 2.97
6) TYSSARDSS | -0.209
7) LGWVYLHMWLGTIYYLFFVI | -1.14
8) LMWGIAYCYSVDLC | 5.39

---

assay: amyloid nucleation score (Sup35N fusion, yeast selection) (log enrichment); library NNK1; higher = more nucleation; inactive = no reads after selection
readout: amyloid nucleation score

1) HVLKGGRAAFVELRGKSHGL | -0.081
2) LQQITGSCSFSGWGLK | 0.091
3) RCVAPAV | 0.151
4) ILWLVRSGVSYQQGGDSTPV | 0.919
5) ARCCWRG | -0.849
6) RNHCVYLECFDLVNHWMPKD | -0.24
7) HDKYTLIGPRH | -1.27
8) VLCNLTVS | -0.907
9) STLDLLCYFRREADQTINKR | 0.336
10) VWCVVVCMSRQGKYTLCRWR | 0.444
11) PPFDSDKA | 0.335
12) AMVGLMMELAHRKLNR | 0.523
13) ESMWVGLKINAVSNYR | 0.3
14) LGGGTFVRWLKSILSFLLW | 0.325
15) EHGNVACRWDTHISLVWCHF | 7.3
16) KSVPRKVFGAILDFLDLQLM | 0.979
17) SLAGFCMQPRTLLV | 0.86
18) FFSYRDSISVKR | -0.449
19) RYTIDLMSFNIKFWSHTLLH | -0.869
20) WVKCLPGGLQAFWYS | -0.369
21) QRECWMYMMFMGYHLLEAQV | 0.215
22) WYPMYQNTYRAEERVT | 0.42
23) RVKYAGGPIGYLFCLWVLCW | -0.895
24) LVGRYSWWQRRRHGTCMGTV | 0.629
25) IKWANREALLLWVELGRLRW | -0.66
26) NYVSLGDVKRRMPGLFELTA | 0.048
27) TVSIGDVTRFVMAVASTTF | 0.18
28) WLHNIQRYTFFSKLRNQRRR | -0.442
29) KSFYGNFRGFFNALNIYHSS | 1.83
30) IISPYHLLLIKYRSSCSLLH | 0.985
31) IGMWSHWR | 0.137
32) NVTFEADLQLLCSRCSWFGT | 3.17
33) PVLYNHCGVNLCPTLCLSNY | 7.2
34) IYVLYQIERSVK | -0.154
35) FTVGYGSYGLT | 0.306
36) DWVLTGGRIWK | -0.803
37) MGLQTFVVTRMV | -0.758
38) CDMNPSDYDPLCEVSHRIIS | 0.561
39) HCYHGRGADR | 0.181
40) FSGHFNARGFSDSWYVCMIG | -0.855
41) LALVFLLMFVHQSDDYKLRN | 2.89
42) LADDHE | 0.229
43) DSDGFQRVPD | -0.736
44) TFLNFWPQFCMEFY | 5.98
45) VQSIRRKVLETRQERVGAQR | 0.04
46) NMSLSWRTNRYAWPMVCLIR | 0.182
47) PYKLGCICITNDFSQAPTVA | -0.652
48) DGGNVV | 0.452
49) NTKELVYKMGCGVRYHGKWG | 1.28
50) HMRYWLLQYGVILAQG | 0.71
51) DFCVQNFMMLKFKLCYRRSL | -0.134
52) CLTGIGKLPVGSGPV | 0.198
53) WYCPATH | 0.836
54) VLLGSCWVFKSQKGRGPSSC | -0.51
55) AVRGINCCKRQSWKCNLCM | 0.915
56) HFTCRTLITGSYSVTTLNVS | 5.23
57) DYFIVGTSVGGDSVTLDNQM | 0.042
58) VGYHFMYSMSAFVASWRSWG | -0.482
59) AVYICPYLQSGNALATDMW | 0.587
60) IWLSFKDLCKVRICSS | 0.803
61) WRLMRECTFSVS | 0.137
62) MSVMLIS | 0.126
63) KIRSPYNMMPMLTLGTSKGV | 0.845
64) YVTVEIMGYVTKVVTITLW | -0.419
65) WARCTGIMFGS | 0.027
66) GSCDYRFYNQLGEWNGYRMA | -0.348
67) IRRSHSEVPVVA | 0.22
68) GRGTRLYVRRQW | 0.39

---

Entries and their amyloid nucleation score
experiment: amyloid nucleation score (Sup35N fusion, yeast selection) (log enrichment); library NNK1; higher = more nucleation; inactive = no reads after selection
readout: amyloid nucleation score

1) YDSRCMAVSFSGSLFSHLLE | -0.317
2) TMSASLNYLTLVMN | 0.129
3) INNTLNI | 0.793
4) CRRIHFLVTMVTGSPLCLSG | -0.627
5) CDVVVSSF | -0.117
6) YFFGLILY | -0.332
7) HTVNLAPRNPDPPS | 0.259
8) TDLFYMMCSRRQTYVCNLVR | 0.456
9) TCILDHGPSMGRHSLGALIL | -0.969
10) RDIRVHATDLNENNCVAHCR | -0.356
11) EKLSRAVYPRASIRVVCMLF | -0.204
12) AMHNSSDGCRFDTYSVCVYW | 2.68
13) WGVALRDAATAVDVGLVVRF | 0.37
14) KFACLRWVICKYCLWV | -0.412
15) LSTTWDFESMGVRVSREYPG | 0.351
16) PLVFCIITGPCV | -0.468
17) ATSLSCKSKFPMTDVAHLHH | 0.406
18) HDTDAKVQILNA | 0.626
19) VWKDRPEMYSCGHCIEMRAE | 0.039
20) YSRGCTFYAKGELRDNGSYY | -0.168
21) YYWCAHPSCYPSVY | 0.878
22) SYVPANY | -1.82
23) LLYVLSTLIMYTSTMYIYQV | 0.662
24) RVITYSV | -0.016
25) LCFVVVTSHDRGMHVIKVET | -0.857
26) YQTWRQWLLFACRVSECYDM | -0.508
27) VGWTALVQALGNGTQHGVVT | 0.394
28) CNMVHVVIERDGSGRRGCGL | 5.38
29) YFCCALSNLLFRKSKHDRVR | 6.87
30) NYIMTRHPPLGISLPEVGRS | -0.81
31) KCLTLSCILDVCKNIVEEMI | 0.047
32) YCNLIRFKFCVNSCCMSSSL | 5.64
33) VKVCMGLGYSGLMLGGLWDS | -0.491
34) VRIRPISPMPDYSPPANWSK | 0.041
35) IFYFVL | 6.8
36) QTRSPQFKPAAYRVFLVDLC | -0.159
37) SVNRCGVYFTEGFFSLRWS | 1.13
38) IMRSMSGWFGFVMLFDAS | -0.598
39) MSVLAIMHLGPGHFAAAYY | 0.186
40) ISVCFWSIKYRSWAILMPKG | 0.077
41) MHWFRVN | 0.324
42) TRHGLGRFVHSRTVVFIGIW | -0.642
43) IENDGMSRAFC | 0.635
44) IPPCWLTGLFNQYMNWTRS | -0.134
45) LLSFGTFTGPKRVYLSLSMV | 0.059
46) LSRSSWQQARICARVHGLGG | 1.05
47) SVWMCM | 2.64
48) LVSLRSIRSRRWCSRQFWSM | -0.111
49) VECLAAVNYGEVHDPGVMDR | 0.417
50) LIYESNREHYYMRSRSAVTR | -0.825
51) CGMVGWTSLPEQNRYPIPST | -0.511
52) GIDTKDFFVAGMLGCVEGMD | 0.245
53) DSLIDRSKVLKQTLYSTYWL | -0.12
54) RMLLENVSVKRR | 0.678
55) TSYTNAVFESNFA | -0.426
56) RGNDLFTQVASMKSV | -0.207
57) SYMKQINTGKVFRAHYVLLA | 0.117
58) ICVRMSKFGCWTFSVKRGWQ | 0.335
59) YILWHEIFQDCLTRDIIRLM | 0.248
60) QFSCIPESTYSS | 0.047
61) ARMFELRPLNRTHYSRAKRT | 0.124
62) YKFYVTTLGFYDWCPFPVER | 0.831
63) FFRIARCHLEDRWVMIAGVL | 0.118
64) DMNNNIVSKSSFLGDVRVIY | -0.19
65) NAACLVLGNVSSFEYSSQMG | 2.41
66) FRDFMMTFMFPRDMSSGAVG | 0.067
